System: MiaPaCa-2 pancreatic cancer cells
experiment notes: QTX125-containing combination therapy, hexosaminidase cell viability
Format: cell-based
test settings: Homo sapiens, MIA PaCa-2, MiaPaCa-2; no second agent (control of Table 5.2.1)
metric: pEC50
Units for pEC50: none; it is -log10 of a concentration expressed in mol/L.

Item O=C(NO)c1ccc(CNC(=O)c2[nH]c(-c3ccc(O)cc3)cc2-c2ccoc2)cc1 with MiaPaCa-2 pancreatic cancer cells - pEC50? 6.67

* * *

System: Panc-1 pancreatic cancer cells
experiment notes: QTX125-containing combination therapy, hexosaminidase cell viability
Assay type: cell-based
test settings: Homo sapiens, PANC-1, Panc-1; no second agent (control of Table 5.5.2)
metric: EC50 (µM)
Respond numerically; units are µM and should not be typed.

Which EC50 is reported with Panc-1 pancreatic cancer cells for this entry: O=C(NO)c1ccc(CNC(=O)c2[nH]c(-c3ccc(O)cc3)cc2-c2ccoc2)cc1 ? 14.7
